target: human orexin-2 receptor (Homo sapiens (Human)); experiment: In vitro assay: intracellular calcium measurements (FLIPR), antagonistic activity; settings: CHO cells expressing human orexin-2 receptor, orexin-A agonist, geometric mean, read-out: IC50 Ox2
Sequence (O43614 whole entry): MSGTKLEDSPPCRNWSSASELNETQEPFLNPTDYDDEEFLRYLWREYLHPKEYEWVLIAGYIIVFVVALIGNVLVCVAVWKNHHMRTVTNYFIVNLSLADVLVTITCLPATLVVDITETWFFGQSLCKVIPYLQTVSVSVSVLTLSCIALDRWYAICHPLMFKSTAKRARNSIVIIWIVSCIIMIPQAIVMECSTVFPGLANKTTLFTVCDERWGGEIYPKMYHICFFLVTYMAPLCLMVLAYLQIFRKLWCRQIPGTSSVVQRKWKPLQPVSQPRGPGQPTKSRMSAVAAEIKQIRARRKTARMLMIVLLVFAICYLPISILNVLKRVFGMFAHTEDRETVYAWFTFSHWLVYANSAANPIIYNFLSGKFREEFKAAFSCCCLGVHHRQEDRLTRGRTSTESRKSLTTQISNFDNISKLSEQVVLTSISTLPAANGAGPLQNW
Measurement Kind: IC50 (nM)

C=C1C[C@@H](c2nc3ccccc3[nH]2)N(C(=O)c2nc(C)sc2-c2cccc(Cl)c2)C1    62
CSc1cccc2nc([C@@H]3CCCN3C(=O)c3nc(C)sc3-c3cccc(Cl)c3Cl)[nH]c12    197
C=C1C[C@@H](c2nc3cccc(C)c3[nH]2)N(C(=O)c2nc(C)sc2-c2ccc(F)cc2)C1    5
C=C1C[C@@H](c2nc3cccc(SC)c3[nH]2)N(C(=O)c2cc(C)ccc2-n2nccn2)C1    10
COc1cc2nc([C@]3(C)CCCN3C(=O)c3cc(F)ccc3-n3nccn3)[nH]c2cc1OC    154

P: COc1ccc(-c2cccc(C)c2)c(C(=O)N2CCC[C@@]2(C)c2nc3ccc(Cl)c(C)c3[nH]2)c1F
Q: COc1ccc2nc([C@@H]3CCCN3C(=O)c3nc(C)sc3-c3cccc(Cl)c3)[nH]c2c1
R: C[C@@]1(c2nc3cc(C(F)(F)F)ccc3[nH]2)CCCN1C(=O)c1ccccc1-n1cccn1
S: Cc1ccc(-n2nccn2)c(C(=O)N2CC(F)(F)C[C@H]2c2nc3c(C)c(Cl)ccc3[nH]2)c1
T: COc1cccc(-c2sc(C)nc2C(=O)N2CCC[C@H]2c2nc3cccc(SC)c3[nH]2)c1
Ask: Sort (5 compounds) by IC50: min first. # answer = labels listed in requested order
Reply: T, P, S, Q, R

A: C=C1C[C@@H](c2nc3cc(OC)ccc3[nH]2)N(C(=O)c2nc(C)sc2-c2ccc(OC)cc2)C1
B: Cc1nc(C(=O)N2CCCC2c2nc3c4c(ccc3[nH]2)OCCO4)c(-c2ccccc2)s1 (stereo not drawn)
Ask: Please choose the item with the lower IC50 value from this pair: A and B Selection: enter the item's label.
Reply: A
